Target: FLT3 (Homo sapiens)
Construct: made in house
Sequence (P36888 27-993): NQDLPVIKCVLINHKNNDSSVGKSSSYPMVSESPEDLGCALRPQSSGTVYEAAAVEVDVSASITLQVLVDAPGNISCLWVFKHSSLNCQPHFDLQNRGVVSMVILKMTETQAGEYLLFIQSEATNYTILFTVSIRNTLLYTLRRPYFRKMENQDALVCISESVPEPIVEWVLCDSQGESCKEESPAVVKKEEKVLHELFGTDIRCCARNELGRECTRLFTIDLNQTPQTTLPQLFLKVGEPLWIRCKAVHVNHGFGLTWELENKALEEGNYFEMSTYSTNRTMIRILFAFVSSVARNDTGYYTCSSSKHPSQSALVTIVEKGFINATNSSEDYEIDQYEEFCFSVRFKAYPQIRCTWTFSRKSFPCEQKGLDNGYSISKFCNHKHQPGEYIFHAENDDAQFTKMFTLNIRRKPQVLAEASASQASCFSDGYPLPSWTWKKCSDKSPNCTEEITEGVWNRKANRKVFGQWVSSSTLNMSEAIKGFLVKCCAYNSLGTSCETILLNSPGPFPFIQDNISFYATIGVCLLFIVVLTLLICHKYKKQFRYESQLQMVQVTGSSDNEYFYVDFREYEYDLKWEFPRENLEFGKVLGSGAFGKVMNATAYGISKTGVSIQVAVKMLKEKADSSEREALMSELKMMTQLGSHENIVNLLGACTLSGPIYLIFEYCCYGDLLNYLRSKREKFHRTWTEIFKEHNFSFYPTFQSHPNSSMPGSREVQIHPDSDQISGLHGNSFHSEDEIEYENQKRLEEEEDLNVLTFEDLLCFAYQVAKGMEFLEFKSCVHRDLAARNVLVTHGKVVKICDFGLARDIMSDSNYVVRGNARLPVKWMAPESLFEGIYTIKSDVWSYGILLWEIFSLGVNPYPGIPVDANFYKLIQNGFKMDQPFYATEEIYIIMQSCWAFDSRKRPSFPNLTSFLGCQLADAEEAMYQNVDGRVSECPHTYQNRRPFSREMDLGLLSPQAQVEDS
Experiment: Competition binding assay, FLT3 Kd
test-readout: Kd

Recorded Kd, per entry:
INSERT INTO results (compound, test_readout, value_observed) VALUES
  ('ON=C1CCCC[C@H]1Nc1nc2ccc(Cn3cnc4cccnc43)cc2s1 [Example 58]', 'Kd', '1 to 5 µM'),
  ('Cn1nnc(-c2cnc3c(c2)ncn3Cc2ccc3nc(N[C@@H]4CCCC[C@H]4O)sc3c2)n1 [Example 94]', 'Kd', '0.2 to 1 µM'),
  ('O[C@@H]1CCCC[C@H]1Nc1nc2ccc(Cc3c[nH]c4ncccc34)cc2s1 [Example 17]', 'Kd', '0.2 to 1 µM'),
  ('N#Cc1cnc2c(c1)ncn2Cc1ccc2nc(N[C@@H]3CCCC[C@H]3O)sc2c1 [Example 43]', 'Kd', '1 to 5 µM'),
  ('O[C@@H]1CCCC[C@H]1Nc1nc2ccc(Cn3cnc4cc(C5CC5)cnc43)cc2s1 [Example 45]', 'Kd', '0.2 to 1 µM');

-- ask Return Kd (reported value) for this compound: COc1cc2c(cc1Br)ncn2Cc1ccc2nc(N[C@@H]3c4ccccc4C[C@H]3O)sc2c1 [Example 49]
-- reply 1 to 5 µM

----------
Molecular target: CSF1R (Homo sapiens, UniProt P07333)
Sequence (P07333 20-972): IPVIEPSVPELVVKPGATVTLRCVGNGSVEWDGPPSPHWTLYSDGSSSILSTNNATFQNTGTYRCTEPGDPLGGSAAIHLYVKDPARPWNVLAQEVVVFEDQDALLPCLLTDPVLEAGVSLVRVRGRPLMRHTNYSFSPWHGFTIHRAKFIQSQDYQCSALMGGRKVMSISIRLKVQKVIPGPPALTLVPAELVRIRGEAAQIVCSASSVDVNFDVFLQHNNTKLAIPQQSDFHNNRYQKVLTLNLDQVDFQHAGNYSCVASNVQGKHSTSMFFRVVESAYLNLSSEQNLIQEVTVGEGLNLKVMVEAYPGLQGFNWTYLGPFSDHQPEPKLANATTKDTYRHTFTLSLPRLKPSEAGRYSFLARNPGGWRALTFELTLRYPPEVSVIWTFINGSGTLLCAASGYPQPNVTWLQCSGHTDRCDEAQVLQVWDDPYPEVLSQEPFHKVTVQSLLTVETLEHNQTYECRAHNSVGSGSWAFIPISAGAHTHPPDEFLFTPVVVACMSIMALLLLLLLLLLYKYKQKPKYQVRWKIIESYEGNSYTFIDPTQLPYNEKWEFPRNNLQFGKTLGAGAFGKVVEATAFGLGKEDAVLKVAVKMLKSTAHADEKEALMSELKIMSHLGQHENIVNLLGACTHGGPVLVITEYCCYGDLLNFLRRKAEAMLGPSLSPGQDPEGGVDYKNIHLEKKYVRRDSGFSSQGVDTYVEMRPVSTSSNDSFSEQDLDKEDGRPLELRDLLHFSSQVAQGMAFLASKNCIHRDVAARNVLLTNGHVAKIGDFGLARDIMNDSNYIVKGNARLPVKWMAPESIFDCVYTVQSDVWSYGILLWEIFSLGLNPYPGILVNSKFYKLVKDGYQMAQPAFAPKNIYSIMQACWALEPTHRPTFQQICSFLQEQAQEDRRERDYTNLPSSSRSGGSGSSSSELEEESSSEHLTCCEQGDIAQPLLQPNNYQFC
Assay: HEK293 CSF1R phosphorylation MSD assay
Type: cell-based
Set-up: expressed in transfected cells; host or cells: HEK293
Conditions: 2 h compound, human M-CSF 50 ng/mL for 5 min; read-out: HEK293 pCSF1R M-CSF MSD:IC50
Listing of entries alongside the reported IC50.

In the examples that follow, each entry is paired with its recorded IC50.
INSERT INTO assay_data (compound, test_readout, value_observed) VALUES
  ('CCOc1ccccc1Nc1nc2ccc(Cn3cnc4cc(OC)c(OC)cc43)cc2s1 [Example 27]', 'IC50', '50 to 200 nM'),
  ('COc1cc2ncn(Cc3ccc4nc(N[C@@H](C)C5CCCCC5)sc4c3)c2cc1OC [Example 33]', 'IC50', '50 to 200 nM'),
  ('COc1cc2ncn(Cc3ccc4nc(NCC5CCCCC5)oc4c3)c2cc1OC [Example 35]', 'IC50', '≤ 50 nM'),
  ('ON=C1CCCC[C@H]1Nc1nc2ccc(Cn3cnc4cccnc43)cc2s1 [Example 58]', 'IC50', '50 to 200 nM'),
  ('O[C@@H]1Cc2ccccc2[C@H]1Nc1nc2ccc(Cn3cnc4cncnc43)cc2s1 [Example 95]', 'IC50', '50 to 200 nM'),
  ('OC1(CNc2nc3ccc(Cn4cnc5cccnc54)cc3s2)CCCCC1 [Example 75]', 'IC50', '50 to 200 nM'),
  ('OCC1(CNc2nc3ccc(Cn4cnc5cccnc54)cc3s2)CCCCC1 [Example 76]', 'IC50', '50 to 200 nM'),
  ('COc1ccn2c(Cc3ccc4nc(N[C@@H]5CCCC[C@H]5O)sc4c3)cnc2c1 [Example 44]', 'IC50', '50 to 200 nM'),
  ('OC[C@@H]1CCCC[C@H]1Nc1nc2ccc(Cn3cnc4cccnc43)cc2s1 [Example 66]', 'IC50', '50 to 200 nM'),
  ('O[C@@H]1CCCC[C@H]1Nc1nc2ccc(Cn3cnc4ccncc43)cc2s1 [Example 71]', 'IC50', '200 to 500 nM');

Now for another entry.
-- ask Specify measured IC50 for COc1ccc2ncn(Cc3ccc4nc(N[C@@H]5CCCC[C@H]5O)sc4c3)c2n1 [Example 23] .
-- reply ≤ 50 nM

----------
Molecular target: PDGFRβ (Homo sapiens, UniProt P09619)
Construct: made in house
Sequence (P09619 33-1106): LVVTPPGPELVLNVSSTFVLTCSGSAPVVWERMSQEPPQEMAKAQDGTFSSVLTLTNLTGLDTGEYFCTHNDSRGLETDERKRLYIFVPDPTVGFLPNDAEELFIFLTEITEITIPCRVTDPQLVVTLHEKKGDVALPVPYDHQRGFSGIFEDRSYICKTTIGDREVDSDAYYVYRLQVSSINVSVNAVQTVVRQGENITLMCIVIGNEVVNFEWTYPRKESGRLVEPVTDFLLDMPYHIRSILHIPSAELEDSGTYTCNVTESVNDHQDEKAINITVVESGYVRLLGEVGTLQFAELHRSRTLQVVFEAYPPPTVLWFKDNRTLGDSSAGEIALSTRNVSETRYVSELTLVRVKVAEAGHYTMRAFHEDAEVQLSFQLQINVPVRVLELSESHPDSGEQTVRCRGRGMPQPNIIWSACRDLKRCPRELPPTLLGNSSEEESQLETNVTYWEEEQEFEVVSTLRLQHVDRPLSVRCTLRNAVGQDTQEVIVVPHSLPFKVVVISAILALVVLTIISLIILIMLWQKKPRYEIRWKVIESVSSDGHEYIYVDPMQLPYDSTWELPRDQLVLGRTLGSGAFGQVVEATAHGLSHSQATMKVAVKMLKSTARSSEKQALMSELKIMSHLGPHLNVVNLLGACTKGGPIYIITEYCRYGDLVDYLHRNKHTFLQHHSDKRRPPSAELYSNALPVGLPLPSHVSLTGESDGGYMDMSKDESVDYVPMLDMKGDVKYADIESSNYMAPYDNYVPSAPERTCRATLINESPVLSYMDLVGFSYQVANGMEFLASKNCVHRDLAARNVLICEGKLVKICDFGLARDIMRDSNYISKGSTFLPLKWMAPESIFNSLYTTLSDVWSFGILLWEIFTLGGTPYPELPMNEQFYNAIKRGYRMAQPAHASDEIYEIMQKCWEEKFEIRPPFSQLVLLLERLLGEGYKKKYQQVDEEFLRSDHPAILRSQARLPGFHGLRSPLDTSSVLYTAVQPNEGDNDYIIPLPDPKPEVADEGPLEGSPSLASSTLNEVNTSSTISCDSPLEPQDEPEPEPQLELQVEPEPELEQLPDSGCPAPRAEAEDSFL
Experiment: Competition binding assay, PDGFRβ Kd
test-readout: Kd

-- ask Give the value of Kd reported for the following: OCc1cnc2c(c1)ncn2Cc1ccc2nc(N[C@@H]3CCCC[C@H]3O)sc2c1 [Example 84]
-- reply 50 to 500 nM

-- ask Read off the recorded Kd for O[C@@H]1CCCC[C@H]1Nc1nc2ccc(Cn3cnc4cc(Br)ccc43)cc2s1 [Example 100]
-- reply 50 to 500 nM

-- ask Quote Kd reported for COc1cc2ncn(Cc3ccc4nc(NC5CCN(C(C)=O)CC5)sc4c3)c2cc1OC [Example 24, acetic acid] please.
-- reply > 2000 nM

----------
Target: KIT (Homo sapiens)
Construct: made in house
Assay: Competition binding assay, KIT Kd
Each item that follows carries a reported Kd.

Example cases with answers are listed next.
INSERT INTO measurements (compound, test_readout, value_observed) VALUES
  ('COc1cc2ncn(Cc3ccc4nc(NCC5CCCCC5)oc4c3)c2cc1OC', 'Kd', '≤ 100 nM'),
  ('O[C@@H]1CCCC[C@H]1Nc1nc2ccc(Cn3cnc4ccccc43)cc2s1', 'Kd', '100 to 500 nM'),
  ('CCOc1ccccc1Nc1nc2ccc(Cn3cnc4cc(OC)c(OC)cc43)cc2s1', 'Kd', '100 to 500 nM'),
  ('O[C@@H]1CCCC[C@H]1Nc1nc2ccc(Cn3cnc4cc(CN5CCOCC5)cnc43)cc2s1', 'Kd', '500 to 2000 nM'),
  ('O[C@@H]1Cc2ccccc2[C@H]1Nc1nc2ccc(Cn3cnc4ccc(Br)nc43)cc2s1', 'Kd', '≤ 100 nM');

-- ask Report measured Kd; entry is "O[C@@H]1Cc2ccccc2[C@H]1Nc1nc2ccc(Cn3cnc4cccnc43)cc2s1"
-- reply 100 to 500 nM

-- ask // fetch Kd given entry "COc1cc2ncn(Cc3ccc4nc(N[C@@H](C)C5CCCCC5)sc4c3)c2cc1OC"
-- reply ≤ 100 nM

-- ask Provide only the value of recorded Kd for O[C@H]1CCCC[C@H]1Nc1nc2ccc(Cn3cnc4ccccc43)cc2s1 (racemic)
-- reply 100 to 500 nM

-- ask Please report Kd for the following compound: "COc1cc2ncn(Cc3ccc4nc(N[C@@H]5CCCC[C@H]5O)sc4c3)c2cc1Br"
-- reply ≤ 100 nM

----------
Target: CSF1R (Homo sapiens, UniProt P07333)
Assay: Competition binding assay, CSF1R Kd
Set-up: made in house
Details: competition binding
Known Kd of a selection of compounds

The following compounds have reported results that may help.
INSERT INTO results (smiles_notation, value_observed) VALUES
  ('CS(=O)(=O)c1ccc2ncn(Cc3ccc4nc(N[C@@H]5CCCC[C@H]5O)sc4c3)c2n1', '20 to 50 nM'),
  ('Cn1cc(-c2ccc3c(c2)ncn3Cc2ccc3nc(N[C@@H]4CCCC[C@H]4O)sc3c2)c(C(F)(F)F)n1', '5 to 20 nM'),
  ('O[C@@H]1CCCC[C@H]1Nc1nc2ccc(Cn3cnc4cccnc43)c(F)c2s1', '5 to 20 nM'),
  ('N#Cc1ccc2ncn(Cc3ccc4nc(N[C@@H]5CCCC[C@H]5O)sc4c3)c2c1', '5 to 20 nM'),
  ('O[C@@H]1CCCC[C@H]1Nc1nc2ccc(Cn3cnc4cc(OC(F)(F)F)ccc43)cc2s1', '5 to 20 nM');

Proceed to the following item.
-- ask Look up and report Kd, with CSF1R (Homo sapiens, UniProt P07333) as system, for "OCc1ccc2ncc(Cc3ccc4nc(N[C@@H]5CCCC[C@H]5O)sc4c3)n2n1"
-- reply ≤ 5 nM

----------
Each record here notes measured Kd.
Target: KIT (Homo sapiens)
Construct: made in house
Assay: Competition binding assay, KIT Kd
Details: competition binding

Sample answers from the record:
INSERT INTO results (compound, value_observed) VALUES
  ('CC(=O)c1ccc2c(c1)ncn2Cc1ccc2nc(N[C@@H]3CCCC[C@H]3O)sc2c1 [Example 110]', '100 to 500 nM'),
  ('COc1nc2c(cc1C#N)ncn2Cc1ccc2nc(N[C@@H]3CCCC[C@H]3O)sc2c1 [Example 126]', '100 to 500 nM'),
  ('O[C@@H]1CCCC[C@H]1Nc1nc2ccc(Cn3cnc4cc(C5=CCNCC5)ccc43)cc2s1 [Example 225]', '≤ 100 nM'),
  ('O[C@@H]1CCCC[C@H]1Nc1nc2ccc(Cc3cnc4ccc(N5CCOCC5)nn34)cc2s1 [Example 155]', '≤ 100 nM');

Now take the following compound into account.
-- ask State the measured Kd (KIT (Homo sapiens)) of COc1ccccc1Nc1nc2ccc(Cn3cnc4cc(F)cnc43)cc2s1 [Example 197]
-- reply 100 to 500 nM

----------
Molecular target: KIT (Homo sapiens, UniProt P10721)
Construct: made in house
Sequence (P10721 26-976): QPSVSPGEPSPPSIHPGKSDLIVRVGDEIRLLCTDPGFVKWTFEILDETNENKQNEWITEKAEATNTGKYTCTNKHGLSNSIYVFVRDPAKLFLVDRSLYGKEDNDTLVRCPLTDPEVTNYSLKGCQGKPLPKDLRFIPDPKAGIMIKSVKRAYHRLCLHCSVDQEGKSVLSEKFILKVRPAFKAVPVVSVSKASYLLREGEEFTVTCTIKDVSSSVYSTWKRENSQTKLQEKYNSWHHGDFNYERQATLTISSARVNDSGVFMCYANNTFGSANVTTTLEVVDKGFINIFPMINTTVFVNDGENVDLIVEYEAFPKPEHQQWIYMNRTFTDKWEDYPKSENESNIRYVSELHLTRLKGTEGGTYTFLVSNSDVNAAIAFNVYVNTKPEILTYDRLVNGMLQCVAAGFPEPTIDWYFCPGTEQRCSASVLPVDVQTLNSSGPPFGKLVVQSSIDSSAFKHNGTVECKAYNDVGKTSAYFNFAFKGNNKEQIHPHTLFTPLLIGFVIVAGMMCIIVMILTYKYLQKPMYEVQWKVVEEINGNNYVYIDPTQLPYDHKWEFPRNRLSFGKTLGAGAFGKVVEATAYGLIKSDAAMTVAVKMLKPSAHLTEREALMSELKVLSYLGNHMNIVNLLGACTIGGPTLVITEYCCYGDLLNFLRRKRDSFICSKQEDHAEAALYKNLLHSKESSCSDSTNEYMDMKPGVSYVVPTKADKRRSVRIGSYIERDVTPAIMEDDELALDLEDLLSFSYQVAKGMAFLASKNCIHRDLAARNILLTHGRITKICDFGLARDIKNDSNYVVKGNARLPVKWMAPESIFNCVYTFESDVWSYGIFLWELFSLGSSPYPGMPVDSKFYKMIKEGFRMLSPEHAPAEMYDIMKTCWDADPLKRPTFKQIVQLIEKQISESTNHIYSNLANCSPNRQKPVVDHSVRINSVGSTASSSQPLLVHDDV
Assay: Competition binding assay, KIT Kd
pKd: −log10 of the molar value.
test-readout: pKd

Please review the following examples before continuing.
INSERT INTO measurements (smiles_notation, value_observed) VALUES
  ('C=Cc1cnc2c(c1)ncn2Cc1ccc2nc(N[C@@H]3CCCC[C@H]3O)sc2c1', '≥ 7.00'),
  ('OC1(CNc2nc3ccc(Cn4cnc5cccnc54)cc3s2)CCCCC1', '≥ 7.00'),
  ('COc1cc2ncn(Cc3ccc4nc(N[C@H]5CCc6ccccc65)sc4c3)c2cc1OC', '6.30 to 7.00'),
  ('O[C@@H]1CCCC[C@H]1Nc1nc2ccc(Cn3cnc4cc(-c5nn[nH]n5)cnc43)cc2s1', '≥ 7.00'),
  ('COc1cc2ncn(Cc3ccc4nc(NCc5ccncc5)sc4c3)c2cc1OC', '< 5.70'),
  ('N=C(NO)c1cnc2c(c1)ncn2Cc1ccc2nc(N[C@@H]3CCCC[C@H]3O)sc2c1', '6.30 to 7.00'),
  ('COc1cc2ncn(Cc3ccc4nc(N[C@@H]5CCCC[C@H]5O)sc4c3)c2cc1C#N', '6.30 to 7.00'),
  ('O[C@@H]1CCCC[C@H]1Nc1nc2ccc(Cn3cnc4cccnc43)cc2o1', '≥ 7.00');

-- ask In one line, give reported pKd of the entry "COc1cc2ncn(Cc3ccc4nc(NC5CCN(C(C)=O)CC5)sc4c3)c2cc1OC" .
-- reply < 5.70

-- ask State its pKd for this compound: "OC[C@@H](Nc1nc2ccc(Cn3cnc4cccnc43)cc2s1)C1CCCCC1"
-- reply ≥ 7.00

-- ask Please list pKd recorded for the compound "N#Cc1ccc2ncn(Cc3ccc4nc(N[C@@H]5CCCC[C@H]5O)sc4c3)c2n1"
-- reply ≥ 7.00

Reference for the values: patent US9938261B2
